The measurements presented in this section are drawn from paper PMC9963656.

[
  {
    "Compound": "O=C(Nc1ccc(NC(=O)Nc2ccccc2-c2nc3ccccc3[nH]2)cc1)Nc1ccccc1-c1nc2ccccc2[nH]1",
    "melting point": "190 to 192 °C"
  },
  {
    "Compound": "O=C(Nc1ccccc1)Nc1ccccc1-c1nc2ccccc2[nH]1",
    "melting point": "129 to 131 °C"
  },
  {
    "Compound": "O=C(NCC1CCC(CNC(=O)Nc2ccccc2-c2nc3ccccc3[nH]2)CC1)Nc1ccccc1-c1nc2ccccc2[nH]1 (centres unmarked)",
    "melting point": "190 to 192 °C"
  },
  {
    "Compound": "CC(C)NC(=O)Nc1ccccc1-c1nc2ccccc2[nH]1",
    "melting point": "196 to 198 °C"
  },
  {
    "Compound": "CCCCNC(=O)Nc1ccccc1-c1nc2ccccc2[nH]1",
    "melting point": "196 to 198 °C"
  }
]
